I'd appreciate it if you could supply EC50 values for the items below.
Target: α1β3 GABAAR WT (Homo sapiens, UniProt P14867+P28472)
Construct: inserted between the fourth and fifth residues of the mature peptide; photolabeling full-length heteropentameric GABAARs in native membranes; expressed in transfected cells
Assay: [3H]muscimol binding to HEK cell membranes (neurosteroid modulation and isotherms), WT receptor
Details: WT α1β3; 3 nM [3H]muscimol; 1 hr on ice; read-out: EC50 for modulation of [3H]muscimol binding
// units = µM; emit number, no label

// query Please look up its EC50: C#CCCO[C@H]1CC[C@H]2[C@@H]3CC[C@H]4CC5(CC[C@]4(C)[C@H]3CC[C@]12C)N=N5
// result 2.4

// query Please look up its EC50: C#CCCO[C@@H]1CC[C@H]2[C@@H]3CC[C@H]4CC5(CC[C@]4(C)[C@H]3CC[C@]12C)N=N5
// result 2.76

---

Target: α1(N408A/Y411F)β3 GABAAR (UniProt P28472+P62813, N434A/Y437F)
Construct: expressed in transfected cells; host or cells: HEK293S GnTI- (ATCC CRL-3022), transient
Test: [3H]muscimol binding to HEK cell membranes, α1 intrasubunit site mutant
Parameters: species or system rat α1, human β3
Conditions: α1(N408A/Y411F)β3; 3 nM [3H]muscimol; read-out: EC50 for modulation of [3H]muscimol binding
assay.readout: EC50 (nM)
// units = nM; emit number, no label

// query Please look up its EC50: C#CCCO[C@H]1CC[C@H]2[C@@H]3CC[C@H]4CC5(CC[C@]4(C)[C@H]3CC[C@]12C)N=N5
// result 1630

---

Target: α1β3(Y284F) GABAAR (UniProt P28472+P62813, Y309F)
Construct: expressed in transfected cells; host or cells: HEK293S GnTI- (ATCC CRL-3022), transient
Sequence (P62813 28-455, other chains not shown): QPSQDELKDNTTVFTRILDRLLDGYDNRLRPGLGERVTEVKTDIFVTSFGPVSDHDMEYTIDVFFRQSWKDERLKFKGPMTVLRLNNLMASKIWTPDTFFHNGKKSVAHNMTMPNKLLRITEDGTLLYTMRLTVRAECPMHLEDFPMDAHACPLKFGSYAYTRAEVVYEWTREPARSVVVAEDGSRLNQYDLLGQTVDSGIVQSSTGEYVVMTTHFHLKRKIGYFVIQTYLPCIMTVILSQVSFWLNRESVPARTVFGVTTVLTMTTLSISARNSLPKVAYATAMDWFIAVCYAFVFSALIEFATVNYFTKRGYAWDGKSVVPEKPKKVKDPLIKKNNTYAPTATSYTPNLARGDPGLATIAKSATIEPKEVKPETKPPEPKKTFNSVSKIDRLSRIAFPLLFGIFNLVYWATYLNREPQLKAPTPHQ
Assay: [3H]muscimol binding to HEK cell membranes, β3 intrasubunit site mutant
Set-up: species or system rat α1, human β3
Experimental: The human α1 and β3 GABAAR subunits were subcloned into pcDNA3 for molecular manipulations and cRNA synthesis. […] [^3H]muscimol-binding assays were performed using a previously described method ([Chen et al., 2019]). […] Time courses of neurosteroid [^3H]muscimol binding enhancement were examined by adding 10 µM of neurosteroids (3α5αP, 3β5αP) to membranes that had been fully equilibrated with 3 nM [^3H]muscimol for 1 hr on ice; binding was then measured as a function of time at 1, 3, 10, 30, 60 min. […]
assay.readout: pEC50
Notebook: values listed as pEC50 are -log10 of the concentration (mol/L).

// query Missing value: pEC50, α1β3(Y284F) GABAAR (UniProt P28472+P62813, Y309F), entry CC(=O)[C@H]1CC[C@H]2[C@@H]3CC[C@H]4C[C@H](O)CC[C@]4(C)[C@H]3CC[C@]12C . Fill in?
// result 6.72
